FYI, the data here is from PubChem BioAssay (NCI).

# Tested on: M14 melanoma
# assayMethodText: NCI-60 one-dose screen, 48 h (100 = growth as untreated, 0 = no growth, -100 = all killed)
# assayContext: 10 µM
Compounds without any hit were thinned out: in the full panel of roughly 83,000, 20% have a hit. Activity calls are given as the source filed them. Rule for the calls: active = growth percent below 10; inactive = the rest.
measurementLabel: growth

> print(dat)
                                     smiles  experimentalvalue
1  O=[N+]([O-])c1ccc(S(=O)(=O)NN=C2CCCCC2)cc1    106% (inactive)
2                           COC(=O)c1cccnc1   93.9% (inactive)
3  O=C1c2ccccc2C(=O)c2c1ccc(C(=O)O)c2[N+](=O)[O-]   87.2% (inactive)
4              CC(=O)c1ccc2c(ccc3ccccc32)c1   89.1% (inactive)
5            O=[N+]([O-])c1cccc(C(F)(F)F)c1   97.9% (inactive)
6   C[C@@H](c1ccccc1)[C@@H](C(=O)O)c1ccccc1    101% (inactive)
